Taken from PubChem BioAssay (NCI).

system: EKVX NSCLC; experiment: NCI-60 one-dose screen, 48 h (100 = growth as untreated, 0 = no growth, -100 = all killed); settings: 10 µM unless noted
The panel holds about 83,000 compounds, 20% with a hit somewhere; the sample as a whole holds those more often.
Metric Name: growth (%)
Record the value in %, omitting the unit from your answer.

Given item `O=S(=O)(NCCNc1cc(-c2cn(-c3ccccc3)nc2-c2cccc(O)c2)ccn1)c1ccccc1` , the value recorded as its growth is 73.1

Given item `CC(C)=CCC[C@](C)(O)[C@H]1CC[C@]2(C)[C@@H]1CC[C@@H]1[C@@]3(C)C/C(=C/c4ccc(Br)cc4)C(=O)C(C)(C)[C@@H]3CC[C@]12C` , the value recorded as its growth is 94.3

Given item `CN1CCN(c2nc(-c3csc(-c4cccs4)n3)cc3ccccc23)CC1` , the value recorded as its growth is 68.3

Given item `NCCn1cc(-c2nc(-c3c[nH]c4ncccc34)cs2)c2cc(F)ccc21` , the value recorded as its growth is 48.6
